Provenance of the data: patent US10071954B2

- System: B_MA9 + Nras (Individual 2 transformed with MLL-AF9 and NrasG12D)
- protocolText: IC50 panel, B_MA9 + Nras
- Assay type: cell-based
measurementKind: IC50 (µM)
Give just the number in µM; leave the unit off.

Provide value of IC50 for this record tested with B_MA9 + Nras (Individual 2 transformed with MLL-AF9 and NrasG12D): O=C(CNC1CCCCC1)Nc1cc(O)ccc1O
2.5

###

- Test system: Kasumi1 (common AML cell line)
- protocolText: IC50 panel, Kasumi1
- Type: cell-based
- conditionParameters: Homo sapiens, Kasumi 1
measurementKind: IC50

Fill in the recorded IC50 for this molecule, with Kasumi1 (common AML cell line) as test system: O=C(CNC1CCCCC1)Nc1cc(O)ccc1O [Compound 14]
19 µM

###

- Tested on: MA9.3RAS AML cells
- protocolText: MTT cytotoxicity assay in MA9.3RAS AML cells
- Assay type: cell-based, human
- conditionParameters: Homo sapiens, MA9.3RAS; 48 hours treatment, MTT; read-out: IC50 against MA9.3RAS AML cells
- Method: Cells were seeded at a density of 4×10^4 cells/well in a 96-well plate and incubated at 37° C. overnight. Then cells were treated for 48 hours with indicated concentrations of freshly dissolved compounds. […] After adding 200 μL of DMSO to each well, the optical densities at 575 nm were determined. Cytotoxicity data are expressed as IC50 values obtained from the fit to a four parameter sigmoid using the graphing software KaleidaGraph (Synergy Software). […]
measurementKind: IC50 (nM)
Answer with a number only, understood to be in nM.

Request the reported IC50 associated with Nc1ccc(O)c(NC(=O)CNC2CCCCC2)c1 [Compound 16]
3000

###

- System: A_MA9 (Individual 1 transformed with MLL-AF9 fusion)
- protocolText: IC50 panel, A_MA9
- Assay type: cell-based
measurementKind: IC50 (µM)
Supply the numeric figure in µM, leaving out any unit text.

Entry O=C(CNC1CCCCC1)Nc1cc(O)ccc1O [Compound 14] has what IC50?
4

###

- Tested on: UT (healthy untransformed cells)
- protocolText: IC50 panel, healthy untransformed cells
- Assay type: cell-based
measurementKind: IC50 (µM)
Write the number in µM without appending the unit.

Please give the measured IC50 for this compound: O=C(CNC1CCCCC1)Nc1cc(O)ccc1O
22
